- assay-overview: Mouse pharmacokinetics (plasma, whole blood, brain)
- Assay type: in vivo, male CD-1 mice
- conditions-used: male, CD-1, mouse; brain; oral, corrected doses 62, 50, 78, 49 mg/kg for 9, 12, 17, 19
reported-property: Tmax (h)

                                   compound  units_symbol  test_value
0  O=[N+]([O-])c1cn2c(n1)S(=O)(=O)CC(OCc1ccc(OC(F)(F)F)cc1)C2 (stereo not shown)             h           4

P: O=[N+]([O-])c1cn2c(n1)[S+]([O-])CC(OCc1ccc(OC(F)(F)F)cc1)C2 (stereo not shown)
Q: O=[N+]([O-])c1cn2c(n1)[S+]([O-])CC(OCc1ccc(OCc3ccccc3)cc1)C2 (stereo not shown)
# input Would you mind telling me which has the lower recorded Tmax between P and Q ? Give the chosen item's label as your response.
# output Q
(Q: 2 h, P: 4 h)

---

- assay-overview: Kinetic solubility in water or 0.1 M HCl (ACSRC)
- Type: physicochemical
- conditions-used: water, pH 7; read-out: aqueous solubility
reported-property: solubility at 15 min (µg/mL)
Give the value, in units of µg/mL, as a plain number.

# input // returns reported solubility at 15 min for input O=[N+]([O-])c1cn2c(n1)[S+]([O-])CC(OCc1ccc(-c3ccc(OC(F)(F)F)cc3)cn1)C2 (stereo not shown)
# output 9.9

---

- assay-overview: Mouse pharmacokinetics (plasma, whole blood, brain)
- Assay type: in vivo, male CD-1 mice
- conditions-used: male, CD-1, mouse; brain; oral, corrected doses 62, 50, 78, 49 mg/kg for 9, 12, 17, 19
- Experimental: In order to determine the suitability of the more permeable hits for in vivo efficacy studies, we first measured their aqueous solubilities, and their tendencies to metabolise, following a 1 h incubation with CD-1 mouse liver S9 subcellular fractions.[14] […]
reported-property: Cmax (ng/mL)

                                   compound  units_symbol  test_value
0  O=[N+]([O-])c1cn2c(n1)OC[C@@H](NCc1ccc(OC(F)(F)F)cc1)C2         ng/mL       35000

A: O=[N+]([O-])c1cn2c(n1)S(=O)(=O)CC(OCc1ccc(OC(F)(F)F)cc1)C2 (stereo not shown)
B: O=[N+]([O-])c1cn2c(n1)[S+]([O-])CC(OCc1ccc(OC(F)(F)F)cc1)C2 (stereo not shown)
C: O=[N+]([O-])c1cn2c(n1)[S+]([O-])CC(OCc1ccc(OCc3ccccc3)cc1)C2 (stereo not shown)
# input Rank the items in ascending order with respect to Cmax. Order the labels as requested and give them as your answer.
# output C, A, B

---

- assay-overview: Mouse pharmacokinetics (plasma, whole blood, brain)
- Type: in vivo, male CD-1 mice
- conditions-used: male, CD-1, mouse; whole blood; intravenous, corrected doses 0.5, 1.1, 2.9, 2.0 mg/kg for 9, 12, 17, 19
reported-property: clearance (mL/min/kg)

                                   compound  test_value
0  O=[N+]([O-])c1cn2c(n1)S(=O)(=O)CC(OCc1ccc(OC(F)(F)F)cc1)C2 (stereo not shown)        11.5
1  O=[N+]([O-])c1cn2c(n1)OC[C@@H](NCc1ccc(OC(F)(F)F)cc1)C2          40

a: O=[N+]([O-])c1cn2c(n1)[S+]([O-])CC(OCc1ccc(OC(F)(F)F)cc1)C2 (stereo not shown)
b: O=[N+]([O-])c1cn2c(n1)[S+]([O-])CC(OCc1ccc(OCc3ccccc3)cc1)C2 (stereo not shown)
# input Higher clearance: a or b ? Provide the label of your selected option as the answer.
# output b
